// provenance: PubChem BioAssay (NCI)

- Tested on: NCI-H226 lung
- EXPERIMENT_SUMMARY: NCI-60 one-dose screen, 48 h (100 = growth as untreated, 0 = no growth, -100 = all killed)
- TEST_SETTINGS: 10 µM unless noted
Compounds without any hit were thinned out: in the full panel of roughly 83,000, 20% have a hit.
Rule: growth below 70% gives true. Equal to or above 70% gives false.

Examples with answers:
>>> qualitative_label("CCCCn1c2cc(OCc3cn(-c4ccc(Cl)cc4)nn3)ccc2c2ccnc(C)c21")
"true"
>>> qualitative_label("COc1ccc(OCC(=O)OC(C)C)cc1")
"false"
>>> qualitative_label("O=C(O)C(C(=O)O)c1cccc2ccccc12")
"false"
>>> qualitative_label("O=Cc1[nH]c(Sc2ccccc2)c2ccccc12")
"true"
>>> qualitative_label("Cc1cccc(C)c1NCc1nnc(-c2ccco2)o1")
"false"

Data request: Consider the compound `CSc1nc(-c2ccco2)c2c(N)[nH]nc2n1` . Is its growth strictly less than 70%?
Data returned: false

Data request: Consider the compound `CCOC(=O)c1c(C)nc2c(c1N)CC(=O)N2CCc1ccccc1` . Is its growth strictly less than 70%?
Data returned: true

Data request: Consider the compound `CCOC(=O)CC[C@H](NC(=O)c1ccc(NC)c2ccccc12)C(=O)OCC` . Is its growth strictly less than 70%?
Data returned: false

----------
// values below are reported growth
- Tested on: NCI/ADR-RES ovarian
- EXPERIMENT_SUMMARY: NCI-60 one-dose screen, 48 h (100 = growth as untreated, 0 = no growth, -100 = all killed)
- TEST_SETTINGS: 10 µM unless noted
Compounds without any hit were thinned out: in the full panel of roughly 83,000, 20% have a hit.
Write the number in % without appending the unit.

Guide cases for growth, answers given:
>>> measured_number("O=C(CCc1nnco1)c1nc2ccc([N+](=O)[O-])cc2[nH]1")
104
>>> measured_number("Sc1cccc2cccnc12")
24.8

Now for another entry.
Data request: Find growth for `C=C1C(=O)O[C@H]2[C@H]1CC/C(COC(=O)n1ccnc1)=C\CC[C@@]1(C)O[C@@H]21` on NCI/ADR-RES ovarian and write it down.
Data returned: 102

----------
- System: MDA-MB-435 melanoma
- EXPERIMENT_SUMMARY: NCI-60 one-dose screen, 48 h (100 = growth as untreated, 0 = no growth, -100 = all killed)
- TEST_SETTINGS: 10 µM unless noted
About 83,000 compounds went through this panel and 20% of them were active in at least one assay; those are over-represented in the sample as a whole.
Rule: growth below 10% gives fulfilled. Equal to or above 10% gives not fulfilled.

Examples with answers:
>>> qualitative_label("C1=CC2=CC=C3C=CC=C4C(c5nc6c7ccccc7c7ccccc7c6[nH]5)=CC(=C1)C2C34 (stereo not drawn)")
"not fulfilled"
>>> qualitative_label("CCCCn1c(=O)c(/C=C/C(=O)/C=C/c2cc3ccccc3n(CCCC)c2=O)cc2ccccc21")
"fulfilled"
>>> qualitative_label("Cc1nccc2c3ccc(OCc4cn(-c5ccccc5)nn4)cc3n(CCCc3ccccc3)c12")
"not fulfilled"

Data request: Consider the compound COc1ccc(-c2cc(C(=O)N3N=C(c4ccc(N)cc4)CC3c3ccc(OC)cc3)c3cc(OC)ccc3n2)cc1 (stereo not drawn) . Is its growth strictly less than 10%?
Data returned: fulfilled

Data request: Consider the compound `COc1ccc(-c2cc(-c3nnc(SCC(=O)Nc4ccc(/C(C)=N\O)cc4)n3-c3ccccc3)c3cc(OC)ccc3n2)cc1` . Is its growth strictly less than 10%?
Data returned: not fulfilled

Data request: Consider the compound O=C1CC23OC(C(O)c4ccccc4N12)C1C(c2ccccc2)=NOC13 (stereo not drawn) . Is its growth strictly less than 10%?
Data returned: fulfilled
